# Target: VLA-4 (Homo sapiens, UniProt P05556+P13612)
# Sequence (P13612 34-1032): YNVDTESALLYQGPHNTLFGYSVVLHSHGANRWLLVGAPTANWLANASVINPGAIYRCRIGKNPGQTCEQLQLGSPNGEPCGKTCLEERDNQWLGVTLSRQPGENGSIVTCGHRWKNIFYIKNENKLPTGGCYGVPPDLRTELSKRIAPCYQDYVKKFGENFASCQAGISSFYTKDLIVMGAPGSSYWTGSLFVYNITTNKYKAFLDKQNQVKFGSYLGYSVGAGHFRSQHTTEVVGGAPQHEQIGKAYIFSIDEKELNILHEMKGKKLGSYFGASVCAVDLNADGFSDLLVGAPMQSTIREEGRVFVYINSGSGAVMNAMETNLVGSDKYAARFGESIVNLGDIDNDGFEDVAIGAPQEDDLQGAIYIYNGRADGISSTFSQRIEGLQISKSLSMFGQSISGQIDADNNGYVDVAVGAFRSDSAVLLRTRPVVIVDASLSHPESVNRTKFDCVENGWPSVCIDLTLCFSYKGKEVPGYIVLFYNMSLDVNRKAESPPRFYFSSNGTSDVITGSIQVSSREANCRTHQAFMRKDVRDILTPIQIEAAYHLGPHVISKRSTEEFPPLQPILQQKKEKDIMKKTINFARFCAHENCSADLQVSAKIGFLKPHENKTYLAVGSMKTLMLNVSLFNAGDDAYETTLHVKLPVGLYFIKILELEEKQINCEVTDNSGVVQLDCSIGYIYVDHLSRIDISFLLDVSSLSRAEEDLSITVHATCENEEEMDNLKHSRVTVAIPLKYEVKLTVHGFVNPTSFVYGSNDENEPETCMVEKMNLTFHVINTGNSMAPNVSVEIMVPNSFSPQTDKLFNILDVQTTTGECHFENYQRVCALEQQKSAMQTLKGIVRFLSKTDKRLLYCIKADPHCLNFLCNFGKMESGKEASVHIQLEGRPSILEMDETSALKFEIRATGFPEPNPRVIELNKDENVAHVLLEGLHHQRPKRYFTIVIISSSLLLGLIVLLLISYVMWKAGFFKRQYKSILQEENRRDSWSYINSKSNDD
# Sequence (P05556 21-798): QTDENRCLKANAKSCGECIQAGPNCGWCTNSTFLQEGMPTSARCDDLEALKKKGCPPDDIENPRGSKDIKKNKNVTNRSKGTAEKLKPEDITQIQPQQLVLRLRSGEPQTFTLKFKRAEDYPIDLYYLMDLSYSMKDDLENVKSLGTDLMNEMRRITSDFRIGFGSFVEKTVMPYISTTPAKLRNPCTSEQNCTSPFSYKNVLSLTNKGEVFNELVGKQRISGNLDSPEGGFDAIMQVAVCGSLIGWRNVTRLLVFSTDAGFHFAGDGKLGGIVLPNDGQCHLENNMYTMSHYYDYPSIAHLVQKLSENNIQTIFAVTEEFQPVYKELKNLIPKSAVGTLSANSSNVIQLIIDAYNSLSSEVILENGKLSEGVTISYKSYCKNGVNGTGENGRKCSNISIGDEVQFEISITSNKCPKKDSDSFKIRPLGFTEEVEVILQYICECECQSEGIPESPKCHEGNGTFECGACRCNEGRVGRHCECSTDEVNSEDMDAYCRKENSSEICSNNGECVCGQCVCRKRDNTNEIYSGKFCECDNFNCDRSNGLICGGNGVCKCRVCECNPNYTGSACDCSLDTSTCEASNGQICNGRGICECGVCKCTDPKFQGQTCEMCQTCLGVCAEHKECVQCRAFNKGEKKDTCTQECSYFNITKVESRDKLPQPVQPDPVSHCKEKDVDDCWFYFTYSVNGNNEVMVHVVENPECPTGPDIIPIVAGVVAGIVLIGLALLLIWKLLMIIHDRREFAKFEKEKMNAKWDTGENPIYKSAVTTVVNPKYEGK
# Procedure summary: cell-based
# Assay type: cell-based
# Design: host or cells: Jurkat (human T lymphoblastic line)
Square brackets hold non-standard residues; d marks the D form. Peptide text beside a SMILES is read from it. * marks the point of attachment. Pyrazinecarbonyl = O=C(c1cnccn1)*; Cha = N[C@@H](CC1CCCCC1)C(=O)O; Isonicotinoyl = O=C(c1ccncc1)*; X19 = O=C(Cc1ccc(Br)cc1)*
Measurement label: RELATIVE POTENCY (relative peptide inhibition of VLA-4 binding CS-1)
Numbers only.

For orientation, consider the following solved cases.
Compound: CC(C)C[C@H](NC(=O)c1cnccn1)C(=O)N[C@@H](CC(=O)O)C(=O)N[C@@H](Cc1ccccc1)C(=O)N1CCC[C@@H]1C(N)=O [X L D F p 2-pyrazinecarbonyl amide] (Pyrazinecarbonyl-LDF[dP]-NH2)
Target: VLA-4 (Homo sapiens, UniProt P05556+P13612)
Experimental value: 9

Compound: Cc1cccc(C)c1C(=O)N[C@@H](CC(C)C)C(=O)N[C@@H](CC(=O)O)C(=O)N[C@H](C(=O)N1CCC[C@@H]1C(N)=O)C(C)C [X L D V p 2,6-dimethylbenzoyl amide]
Target: VLA-4 (Homo sapiens, UniProt P05556+P13612)
Experimental value: 5

Compound: CC(C)C[C@@H](C(=O)N[C@@H](CC(=O)O)C(=O)N[C@@H](Cc1ccccc1)C(=O)N1CCC[C@@H]1C(N)=O)n1c(=O)[nH]c2ccccc2c1=O
Target: VLA-4 (Homo sapiens, UniProt P05556+P13612)
Experimental value: 56

Compound: CCC(C)C(N)C(=O)N[C@@H](CC(C)C)C(=O)N[C@@H](CC(=O)O)C(=O)N[C@H](C(=O)N1CCC[C@@H]1C(N)=O)C(C)C (single isomer, unassigned) [I L D V p free amine amide]
Target: VLA-4 (Homo sapiens, UniProt P05556+P13612)
Experimental value: 1

Compound: CC[C@H](C)[C@H](N)C(=O)N[C@@H](CC(C)C)C(=O)N[C@@H](CC(=O)O)C(=O)N[C@H](C(=O)N1CCC[C@H]1C(=O)O)C(C)C [I L D V P free amine free acid, reference compound] (H-ILDVP-OH)
Target: VLA-4 (Homo sapiens, UniProt P05556+P13612)
Experimental value: 1

Compound: NC(=O)[C@H]1CCCN1C(=O)[C@H](Cc1ccccc1)NC(=O)[C@H](CC(=O)O)NC(=O)[C@H](CC1CCCCC1)NC(=O)[C@@H](N)Cc1ccccc1 (H-F[Cha]DF[dP]-NH2)
Target: VLA-4 (Homo sapiens, UniProt P05556+P13612)
Experimental value: 1

Compound: CC(C)C[C@H](NC(=O)c1ccncc1)C(=O)N[C@@H](CC(=O)O)C(=O)N[C@@H](Cc1ccccc1)C(=O)N1CCC[C@@H]1C(N)=O [X L D F p pyridine-4-carbonyl amide] (Isonicotinoyl-LDF[dP]-NH2)
Target: VLA-4 (Homo sapiens, UniProt P05556+P13612)
Experimental value: 656

Compound: CC(C)C[C@H](NC(=O)Cc1ccc(O)c(O)c1)C(=O)N[C@@H](CC(=O)O)C(=O)N[C@@H](Cc1ccccc1)C(=O)N1CCCCC1
Target: VLA-4 (Homo sapiens, UniProt P05556+P13612)
Experimental value: 81

Compound: CC[C@H](C)[C@H](NC(=O)[C@H](CCC(=O)O)NC(=O)[C@@H]1CCCN1C(=O)CN)C(=O)N[C@@H](CC(C)C)C(=O)N[C@@H](CC(=O)O)C(=O)N[C@H](C(=O)N1CCC[C@H]1C(=O)N[C@@H](CO)C(=O)N[C@H](C(=O)O)[C@@H](C)O)C(C)C [G P E I L D V P S T free amine free acid, GPEILDVPST, reference compound] (H-GPEILDVPST-OH)
Target: VLA-4 (Homo sapiens, UniProt P05556+P13612)
Experimental value: 1

Compound: CC(C)C[C@H](NC(=O)c1ccccn1)C(=O)N[C@@H](CC(=O)O)C(=O)N[C@H](C(=O)N1CCC[C@@H]1C(N)=O)C(C)C [X L D V p pyridine-2-carbonyl amide]
Target: VLA-4 (Homo sapiens, UniProt P05556+P13612)
Experimental value: 8

Lab note: each compound below needs its RELATIVE POTENCY (relative peptide inhibition of VLA-4 binding CS-1) filled in.
1. CC(C)C[C@@H](C(=O)N[C@@H](CC(=O)O)C(=O)N[C@H](C(=O)N1CCC[C@@H]1C(N)=O)C(C)C)N1C(=O)c2ccccc2C1=O [X L D V p phthalimido amide]
2. CC(C)C[C@H](NC(=O)Cc1ccc(Br)cc1)C(=O)N[C@@H](CC(=O)O)C(=O)N[C@@H](Cc1ccccc1)C(=O)N1CCC[C@@H]1C(N)=O [X L D F p p-bromophenylacetyl amide] (X19-LDF[dP]-NH2)
3. CC(C)C[C@H](NC(=O)CCc1ccccc1)C(=O)N[C@@H](CC(=O)O)C(=O)N[C@H](C(=O)N1CCC[C@@H]1C(N)=O)C(C)C [X L D V p phenylpropionyl amide]

result:
[140, 3, 14]

Batch: RELATIVE POTENCY (relative peptide inhibition of VLA-4 binding CS-1) for all items listed.
1. Cc1cccc(C(=O)N[C@@H](CC(C)C)C(=O)N[C@@H](CC(=O)O)C(=O)N[C@H](C(=O)N2CCC[C@@H]2C(N)=O)C(C)C)c1C [X L D V p 2,3-dimethylbenzoyl amide]
2. Cc1ccc(C(=O)N[C@@H](CC(C)C)C(=O)N[C@@H](CC(=O)O)C(=O)N[C@H](C(=O)N2CCC[C@@H]2C(N)=O)C(C)C)cc1C [X L D V p 3,4-dimethylbenzoyl amide]
3. CC(C)CC(C(=O)NCc1ccccc1)C(=O)N[C@@H](CC(=O)O)C(=O)N[C@@H](Cc1ccccc1)C(=O)N1CCC[C@@H]1C(N)=O (stereo partly shown)
4. CC(C)C[C@H](NC(=O)C=Cc1ccccc1)C(=O)N[C@@H](CC(=O)O)C(=O)N[C@H](C(=O)N1CCC[C@@H]1C(N)=O)C(C)C [X L D V p cinnamoyl amide]

result:
9
8
2
1

query: // lookup RELATIVE POTENCY (relative peptide inhibition of VLA-4 binding CS-1) for CC(C)C[C@H](NC(=O)C1CCCCC1)C(=O)N[C@@H](CC(=O)O)C(=O)N[C@H](C(=O)N1CCC[C@@H]1C(N)=O)C(C)C [X L D V p cyclohexanecarbonyl amide]
result: 5
